Measured values drawn from patent US20260234276A1 for this set.

target: pm5 (human, sulfated tyrosines at Y15 and Y17); assay: ELISA on coated peptide [cont.]
Sequence (peptide, as listed by the source): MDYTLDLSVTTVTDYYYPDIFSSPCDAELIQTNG
READOUT: binding result

>>> result("3-14 (antibody, V domains shown) VH: EVQLVESGGGLVQPTGSLRLSCAASGFTFNAYAMNWVRQAPGKGLEWVARIRSKSNDYATYYGDSVKDRFTISRDDSQSMLYLQMNNLKTEDTAMYYCVRGREAYYRYDGGYYAMDYWGQGTSVTVSS VL: DIVMTQAAPSVSVTPGESVSISCTSSKSLLHSNGNTYLYWFLQRPGQSPQLLIYRMSNLASGVPDRFSGSGSGTAFTLRISRVEAEDVGVYYCMQHREYPFTFGSGTKLEIK")
"binds"
>>> result("3-43 (antibody, V domains shown) VH: QVQLQQPGAELVKPGASVKMSCKATGYTFTGYNMHWVKQTPGQGLEWIGAISPGKGDTSYNLKFKGKATLTTDKSSSTAYMQLSSLTSADSAVYYCARSGGTPFAYWGQGTLVTVSA VL: DVVMTQTPLSLPVSLGDQASISCRSSQSLVHSNGDTYLYWYLQKPGQSPKLLIYKVSNRFSGVPDRFSGSGSGTDFTLKINRVEAEDLGVYFCSQSTHVPYTFGGGTKLEIK")
"binds"
